system: WPMY1-ACTB-RAB5A; assay: phenotypically active (imaging signature differs from DMSO and reproducible) at any of 0.3-9 uM (binary (1 = active, 0 = inactive)); higher = active; conditions: treatment time: 24 h
Outcomes: active, inactive

| Compound | System | Class Assignment |
| --- | --- | --- |
| CN(C)CCOC(c1ccccc1)c1ccccc1 [diphenhydramine] | WPMY1-ACTB-RAB5A | active |
| O=S(c1ccccc1)c1ccc2nnnn2n1 (centres undefined) | WPMY1-ACTB-RAB5A | inactive |
| CN(C)CC(O)Cn1c2ccc(Br)cc2c2cc(Br)ccc21 (centres undefined) [Wiskostatin] | WPMY1-ACTB-RAB5A | active |
| CNC(=O)COC(=O)N1CCC(CCc2ccc(Cl)cc2)CC1 | WPMY1-ACTB-RAB5A | inactive |
| CC(C)(C)c1ccc(S(=O)(=O)/C=C/C#N)cc1 | WPMY1-ACTB-RAB5A | inactive |
| CC[C@]1(O)C[C@@H]2CN(CCc3c([nH]c4ccccc34)[C@@](C(=O)OC)(c3cc4c(cc3OC)N(C=O)[C@H]3[C@@](O)(C(=O)OC)[C@H](OC(C)=O)[C@]5(CC)C=CCN6CC[C@]43[C@@H]65)C2)C1 [vincristine] | WPMY1-ACTB-RAB5A | active |
| Cc1cccc(-c2n[nH]cc2-c2ccc(F)c(-c3cnn(CCO)c3)c2)n1 | WPMY1-ACTB-RAB5A | active |
| OCc1cc(C(O)CNCCCCCCOCCCCc2ccccc2)ccc1O (centres undefined) [salmeterol] | WPMY1-ACTB-RAB5A | active |
| O=C(O)C[C@H](O)C[C@H](O)/C=C/c1c(C2CC2)nc2ccccc2c1-c1ccc(F)cc1 [Pitavastatin calcium] | WPMY1-ACTB-RAB5A | active |
